Test system: 252836-082-R-J2-PDC tumor spheroids, viability
Assay: Anticancer human tumor 252836-082-R-J2-PDC patient-derived head and neck squamous cell carcinoma cell line growth inhibition [PI3K]
Details: second compound 0.01 µM; first compound 0.000316 µM; stronger effect = lower value; spheroids with HUVEC and MSC
Description: Combinatorial screen of targeted agents with the PI3K inhibitors inavolisib, alpelisib, duvelisib, and copanlisib in multi-cell type tumor spheroids A high-throughput screen of multi-cell type tumor spheroids was designed to identify active combinations of targeted small molecules and PI3K pathway inhibitors. […] Compounds. […] If the clinical Cmax for an agent had not been determined, the highest concentration tested was 10 microM. […]
OBSERVATION TYPE: viability, T/C (%)
A number alone suffices; assume %.

- COMPOUND: "CC(C)n1nc(-c2ccc3oc(N)nc3c2)c2c(N)ncnc21 + COc1c(OCCCN2CCOCC2)ccc2c3n(c(=NC(=O)c4cnc(N)nc4)nc12)CCN3"
  viability, T/C / %: 78.7
- COMPOUND: "CC(C)n1nc(-c2ccc3oc(N)nc3c2)c2c(N)ncnc21 + CC(Nc1ccc2c(c1)OCCn1cc(N3C(=O)OCC3C(F)F)nc1-2)C(N)=O"
  viability, T/C / %: 94

Kindly review the next compound as well.
Entry CC(=O)c1c(C)c2cnc(Nc3ccc(N4CCNCC4)cn3)nc2n(C2CCCC2)c1=O + COc1c(OCCCN2CCOCC2)ccc2c3n(c(=NC(=O)c4cnc(N)nc4)nc12)CCN3 ; viability, T/C = 84.7

----------
test system: 252836-082-R-J2-PDC tumor spheroids, viability; test: Anticancer human tumor 252836-082-R-J2-PDC cell line growth inhibition [PI3K]; details: second compound 0.0316 µM; first compound 0.1 µM; stronger effect = lower value; spheroids with HUVEC and MSC;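 note: spheroids exposed to agents for seven days before readout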;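 for viability, T/C: percent of vehicle DMSO control viability so 100% = untreated growth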
Parameter: viability, T/C. Scope: all listed entries.
A number alone suffices; assume %.

Reference set, count: 2
- MOLECULE: "CC(C)n1nc(-c2ccc3oc(N)nc3c2)c2c(N)ncnc21 + Cc1nc(NC(=O)N2CCCC2C(N)=O)sc1-c1ccnc(C(C)(C)C(F)(F)F)c1"
  TARGET DESC: "252836-082-R-J2-PDC tumor spheroids, viability"
  viability, T/C [%]: 21.3
- MOLECULE: "C#Cc1c(F)ccc2cc(O)cc(-c3ncc4c(N5CC6CCC(C5)N6)nc(OCC56CCCN5CC(F)C6)nc4c3F)c12 (stereo not drawn) + COc1c(OCCCN2CCOCC2)ccc2c3n(c(=NC(=O)c4cnc(N)nc4)nc12)CCN3"
  TARGET DESC: "252836-082-R-J2-PDC tumor spheroids, viability"
  viability, T/C [%]: 62

Entry C=CC(=O)N1CCN(c2nc(=O)n(-c3c(C)ccnc3C(C)C)c3nc(-c4c(O)cccc4F)c(F)cc23)C(C)C1 (stereo not drawn) + CC(Nc1ccc2c(c1)OCCn1cc(N3C(=O)OCC3C(F)F)nc1-2)C(N)=O ; viability, T/C = 78.6

----------
tested on: 252836-082-R-J2-PDC tumor spheroids, viability; experiment: Anticancer human tumor 252836-082-R-J2-PDC cell line growth inhibition [PI3K]; details: curve of first compound; second compound 3.16 µM; spheroids with HUVEC and MSC;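 note: spheroids exposed to agents for seven days before readout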
pIC50: −log10 of the molar value.
OBSERVATION TYPE: pIC50

- COMPOUND: "CCCS(=O)(=O)Nc1ccc(F)c(C(=O)c2c[nH]c3ncc(-c4ccc(Cl)cc4)cc23)c1F + Cc1nc(NC(=O)N2CCCC2C(N)=O)sc1-c1ccnc(C(C)(C)C(F)(F)F)c1"
  RECORDED MEASUREMENT: 7.50

Entry Cn1ncnc1[C@H]1c2n[nH]c(=O)c3cc(F)cc(c23)N[C@@H]1c1ccc(F)cc1 + Cc1nc(NC(=O)N2CCCC2C(N)=O)sc1-c1ccnc(C(C)(C)C(F)(F)F)c1 ; pIC50 = > 9.50

Entry CNC(=O)c1ccc(N2C(=S)N(c3ccc(C#N)c(C(F)(F)F)c3)C(=O)C2(C)C)cc1F + CC(Nc1ncnc2nc[nH]c12)c1cc2cccc(Cl)c2c(=O)n1-c1ccccc1 ; pIC50 = < 5.00

Entry C#Cc1c(F)ccc2cc(O)cc(-c3ncc4c(N5CC6CCC(C5)N6)nc(OCC56CCCN5CC(F)C6)nc4c3F)c12 (stereo not given) + Cc1nc(NC(=O)N2CCCC2C(N)=O)sc1-c1ccnc(C(C)(C)C(F)(F)F)c1 ; pIC50 = > 7.50

----------
Parameter: viability, T/C. Scope: all listed entries.
system: 252836-082-R-J2-PDC tumor spheroids, viability; test: Anticancer human tumor 252836-082-R-J2-PDC cell line growth inhibition [PI3K]; settings: compound 0.00316 µM; stronger effect = lower value; spheroids with HUVEC and MSC;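 note: spheroids exposed to agents for seven days before readout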;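 for viability, T/C: percent of vehicle DMSO control viability so 100% = untreated growth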

Reference set, count: 4
- MOLECULE: "CC(C)n1nc(-c2ccc3oc(N)nc3c2)c2c(N)ncnc21"
  TARGET DESC: "252836-082-R-J2-PDC tumor spheroids, viability"
  viability, T/C: "87.4% [middle of 4 runs]"
- MOLECULE: "COc1c(OCCCN2CCOCC2)ccc2c3n(c(=NC(=O)c4cnc(N)nc4)nc12)CCN3"
  TARGET DESC: "252836-082-R-J2-PDC tumor spheroids, viability"
  viability, T/C: "96.6% [middle of 8 runs]"
- MOLECULE: "Cn1ncnc1[C@H]1c2n[nH]c(=O)c3cc(F)cc(c23)N[C@@H]1c1ccc(F)cc1"
  TARGET DESC: "252836-082-R-J2-PDC tumor spheroids, viability"
  viability, T/C: "89.2% [middle of 4 runs]"
- MOLECULE: "CC(Nc1ccc2c(c1)OCCn1cc(N3C(=O)OCC3C(F)F)nc1-2)C(N)=O (stereo not given)"
  TARGET DESC: "252836-082-R-J2-PDC tumor spheroids, viability"
  viability, T/C: "93% [middle of 8 runs]"

Kindly review the next molecule as well.
Entry CCN1CCN(Cc2ccc(Nc3ncc(F)c(-c4cc(F)c5nc(C)n(C(C)C)c5c4)n3)nc2)CC1 ; viability, T/C = 99.2% [middle of 4 runs]

----------
Parameter: viability, T/C. Scope: all listed entries.
system: 252836-082-R-J2-PDC tumor spheroids, viability; assay: Anticancer human tumor 252836-082-R-J2-PDC cell line growth inhibition [PI3K]; settings: second compound 0.01 µM; first compound 1 µM; stronger effect = lower value; spheroids with HUVEC and MSC;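 note: spheroids exposed to agents for seven days before readout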;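 for viability, T/C: percent of vehicle DMSO control viability so 100% = untreated growth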
A number alone suffices; assume %.

Reference set, count: 2
- MOLECULE: "C[C@@H](NC(=O)c1ncnc(N)c1Cl)c1ncc(C(=O)Nc2cc(C(F)(F)F)c(Cl)cn2)s1 + CC(Nc1ccc2c(c1)OCCn1cc(N3C(=O)OCC3C(F)F)nc1-2)C(N)=O"
  RECORDED MEASUREMENT: 100
- MOLECULE: "Cn1ncc(Cl)c1-c1cc(C(=O)NC(CN)Cc2cccc(F)c2)sc1Cl (stereo not drawn) + COc1c(OCCCN2CCOCC2)ccc2c3n(c(=NC(=O)c4cnc(N)nc4)nc12)CCN3"
  RECORDED MEASUREMENT: 40.1

Kindly review the next molecule as well.
Entry CNC(=O)c1ccc(N2C(=S)N(c3ccc(C#N)c(C(F)(F)F)c3)C(=O)C2(C)C)cc1F + COc1c(OCCCN2CCOCC2)ccc2c3n(c(=NC(=O)c4cnc(N)nc4)nc12)CCN3 ; viability, T/C = 71.9

----------
test system: 252836-082-R-J2-PDC tumor spheroids, viability; assay: Anticancer human tumor 252836-082-R-J2-PDC cell line growth inhibition [PI3K]; details: curve of first compound; second compound 0.1 µM; spheroids with HUVEC and MSC;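 note: spheroids exposed to agents for seven days before readout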
OBSERVATION TYPE: IC50

- COMPOUND: "CC(C)n1nc(-c2ccc3oc(N)nc3c2)c2c(N)ncnc21 + CC(Nc1ncnc2nc[nH]c12)c1cc2cccc(Cl)c2c(=O)n1-c1ccccc1"
  IC50: "37.1 nM"
- COMPOUND: "Cn1ncnc1[C@H]1c2n[nH]c(=O)c3cc(F)cc(c23)N[C@@H]1c1ccc(F)cc1 + CC(Nc1ccc2c(c1)OCCn1cc(N3C(=O)OCC3C(F)F)nc1-2)C(N)=O"
  IC50: "46.7 nM"
- COMPOUND: "Cn1cnc2c(F)c(Nc3ccc(Br)cc3Cl)c(C(=O)NOCCO)cc21 + Cc1nc(NC(=O)N2CCCC2C(N)=O)sc1-c1ccnc(C(C)(C)C(F)(F)F)c1"
  IC50: "2410 nM"
- COMPOUND: "CC(C)NCC(C(=O)N1CCN(c2ncnc3c2C(C)CC3O)CC1)c1ccc(Cl)cc1 (configuration not stated) + CC(Nc1ccc2c(c1)OCCn1cc(N3C(=O)OCC3C(F)F)nc1-2)C(N)=O"
  IC50: "234 nM"
- COMPOUND: "CC1(C)CCC(CN2CCN(c3ccc(C(=O)NS(=O)(=O)c4ccc(NCC5CCOCC5)c([N+](=O)[O-])c4)c(Oc4cnc5[nH]ccc5c4)c3)CC2)=C(c2ccc(Cl)cc2)C1 + Cc1nc(NC(=O)N2CCCC2C(N)=O)sc1-c1ccnc(C(C)(C)C(F)(F)F)c1"
  IC50: "5200 nM"
- COMPOUND: "CCN1CCN(Cc2ccc(Nc3ncc(F)c(-c4cc(F)c5nc(C)n(C(C)C)c5c4)n3)nc2)CC1 + CC(Nc1ccc2c(c1)OCCn1cc(N3C(=O)OCC3C(F)F)nc1-2)C(N)=O"
  IC50: "> 1000 nM"
- COMPOUND: "C[C@@H](NC(=O)c1ncnc(N)c1Cl)c1ncc(C(=O)Nc2cc(C(F)(F)F)c(Cl)cn2)s1 + COc1c(OCCCN2CCOCC2)ccc2c3n(c(=NC(=O)c4cnc(N)nc4)nc12)CCN3"
  IC50: "< 31.6 nM"
- COMPOUND: "CC1(C)CCC(Nc2ncc(C(F)(F)F)c(-c3c[nH]c4c(P(C)(C)=O)c(C#N)ccc34)n2)CN1 (configuration not stated) + COc1c(OCCCN2CCOCC2)ccc2c3n(c(=NC(=O)c4cnc(N)nc4)nc12)CCN3"
  IC50: "< 31.6 nM"

Kindly review the next compound as well.
Entry Cn1ncc(Cl)c1-c1cc(C(=O)NC(CN)Cc2cccc(F)c2)sc1Cl (configuration not stated) + Cc1nc(NC(=O)N2CCCC2C(N)=O)sc1-c1ccnc(C(C)(C)C(F)(F)F)c1 ; IC50 = 657 nM

Taken from PubChem BioAssay AID1963985.
